Measured logP of individual entries
assay: phys. data (logP), Table 1; type: physicochemical; conditions: read-out: logP
// keep it numeric: no unit symbol after the value

Reference set (3 entries):
CON=C(C1=NOCCO1)c1cc(C)ccc1OC(=O)C=C(C)c1cccc(Cl)c1 3.9
CON=C(C1=NOCCO1)c1ccccc1OC(=O)C=C(C)c1cccc(Cl)c1 3.64
CON=C(C1=NOCC(C)(C)O1)c1ccccc1OC(=O)C=C(C)c1ccc(C(F)(F)F)cc1 4.23

Item under review: `CON=C(C1=NOCCO1)c1ccccc1OC(=O)C=C(C)c1ccc(F)cc1` . Reported logP?
3.28

Quick one: logP for `CON=C(C1=NOCCO1)c1ccccc1OC(=O)C=C(C)c1ccccc1F` ?
3.25

Name the reported logP value associated with the compound `CON=C(C1=NOCCO1)c1ccccc1OC(=O)C=C(C)c1cccc(OC)c1`
3.22

# get_value(readout='logP', item= `CON=C(C1=NOCCO1)c1ccccc1OC(=O)C=C(C)c1ccccc1` )
3.22

Fill in the blank: the reported logP of `CON=C(C1=NOCCO1)c1ccccc1OC(=O)C=C(C)c1ccccc1Br` is ____.
3.58

Given the entry `CCOc1ccc(C(C)=CC(=O)Oc2ccccc2C(=NOC)C2=NOCCO2)cc1` , report its measured logP.
3.57

====

assay: phys. data (logP), Table 1; type: physicochemical; settings: read-out: logP
Entries annotated with measured logP
Could you keep your reply to the number by itself?

Here's what some known entries look like.
MOLECULE	logP
CCOc1ccccc1C(C)=CC(=O)Oc1ccccc1C(=NOC)C1=NOCCO1	3.63
CON=C(C1=NOCCO1)c1ccccc1OC(=O)C=C(C)c1ccccc1C(F)(F)F	3.58
CON=C(C1=NOCCO1)c1ccccc1OC(=O)C=C(C)c1ccc(Cl)nc1	2.75
CON=C(C1=NOCCO1)c1ccccc1OC(=O)C=C(C)c1ccc(C(F)(F)F)cc1	3.81
CON=C(C1=NOCC(C)O1)c1ccccc1OC(=O)C=C(C)c1ccc(C(F)(F)F)cc1 (stereo not drawn)	4.02
CCc1cccc(C(C)=CC(=O)Oc2ccccc2C(=NOC)C2=NOCCO2)c1	3.91
CON=C(C1=NOCCO1)c1ccccc1OC(=O)C=C(C)c1ccc(C)cc1	3.58
CON=C(C1=NOCCO1)c1ccccc1OC(=O)C=C(C)c1cc(C)ccc1C	3.85

Then there is this molecule:
Quick one: logP of `CON=C(C1=NOCCO1)c1ccccc1OC(=O)C=C(C)c1ccccc1C` ?
3.48

====

assay: phys. data (logP), Table 1; type: physicochemical; conditions: read-out: logP
REPORTED_METRIC: logP
Kindly provide the number alone.

CON=C(C1=NOCCO1)c1ccccc1OC(=O)C=C(C)c1ccccc1OC 3.28
CON=C(C1=NOCCO1)c1ccccc1OC(=O)C=C(C)c1ccc(Br)cc1 3.78
CON=C(C1=NOCCO1)c1ccccc1OC(=O)C=C(C)c1cc(Cl)ccc1Cl 3.93
CON=C(C1=NOCCO1)c1ccccc1OC(=O)C=C(C)c1ccc(OC)cc1 3.19

Entry `CON=C(C1=NOCCO1)c1ccccc1OC(=O)C=C(C)c1ccccc1OC(C)C` has what logP?
3.87

What value of measured logP is listed for `CCCOc1ccccc1C(C)=CC(=O)Oc1ccccc1C(=NOC)C1=NOCCO1` ?
3.98

Please look up its logP: `CON=C(C1=NOCCO1)c1ccccc1OC(=O)C=C(C)c1cccc(C)c1`
3.58

Find the recorded logP belonging to `CON=C(C1=NOCCO1)c1ccccc1OC(=O)C=C(C)c1cccc(Br)c1` and report it.
3.72
